- System: 786-0
- Test Summary: NCI tumour cell line growth inhibition, 48 h
Calls of active or inactive are those of the source. Cut-off read from the data, not from the text of the source: active = GI50 up to about 1.1 µM and inactive = higher.
Quantity Kind: GI50

Lab request: please report GI50 under test system 786-0 for C(/Cc1ccc2c(c1)OCO2)=N\N=C1NCCCN1
78.2 µM (inactive)

---

- Test system: OVCAR-8
- Test Summary: NCI tumour cell line growth inhibition, 48 h
Calls of active or inactive are those of the source. No stated cut-off is given here; in the data, active = GI50 up to about 1.1 µM and inactive = higher.
Quantity Kind: GI50

These recorded examples may help you get a feel for the data.
{"Molecule": "CN(C)c1nnnn1-c1c(N)n(C)c(=O)n(C)c1=O", "GI50": "> 100 µM (inactive)"}
{"Molecule": "CC(C)Cn1cnc2c(Cl)nc3ccccc3c21", "GI50": "58.9 µM (inactive)"}
{"Molecule": "CC(C)=NN/C(=N\\c1ccc(Cl)cc1)NS(=O)(=O)c1cc(Cl)c(Oc2ccc([N+](=O)[O-])cc2Cl)c(Cl)c1", "GI50": "> 100 µM (inactive)"}

# query: GI50 of entry O=C(c1ccccc1)c1ccc2[nH]c(-c3c(Cl)c(Cl)c(Cl)c(Cl)c3C(=O)N/N=C/c3ccccc3)nc2c1
32.2 µM (inactive)

# query: GI50 of entry CCCCCCCCCCCCCCCC(=O)OCC1OC(n2cc(F)c(=O)[nH]c2=O)C(N)C(O)C1O (stereo unspecified)
20.5 µM (inactive)

Give the measured GI50 of Cc1ccc(C)c(NC(=O)C(=O)C(C(=O)c2ccc3ccccc3c2)C2OC(=O)c3ccccc32)c1 (stereo unspecified) .
7.82 µM (inactive)

Look up GI50: Nc1cccc2nnccc12
> 100 µM (inactive)

Consider the molecule shown here: [O-][S+](Nc1ccccc1)c1ccc(Cl)c(Cl)c1 (stereo unspecified) What is its recorded GI50?
66.4 µM (inactive)

What value of GI50 has been reported for the following molecule? CC(C)(C)OC(=O)NC(Cc1ccc(OCc2ccccc2)cn1)C(=O)N1CCCC1 (stereo unspecified)
40.6 µM (inactive)

Value lookup for GI50; key = O=C(CCN1CCCCC1CCO)Nc1ccc2c(c1)C(=O)c1ccc(NC(=O)CCN3CCCCC3CCO)cc1C2=O (stereo unspecified)
3.73 µM (inactive)

# get_value(readout='GI50', item= COc1ccc(C2S/C(=C\c3cccc(O)c3)C(=O)N2NC(=O)Cc2ccccc2)cc1 (stereo unspecified) )
> 100 µM (inactive)

// query GI50 value for entry C=C(C)C(CC=C(C)C)Cc1c(O)cc(OC)c2c1OC(c1ccc(O)cc1O)C(O)C2=O (stereo unspecified)
17 µM (inactive)

---

- System: OVCAR-4
- Test Summary: NCI tumour cell line growth inhibition, 48 h
The source made the active and inactive calls. No stated cut-off is given here; in the data, active = GI50 up to about 1.1 µM and inactive = higher.
Quantity Kind: GI50

{"Compound": "OC1c2c(ccc3c2CCC3)CC12Cc1ccccc1C2 (centres undefined)", "Assay System": "OVCAR-4", "Quantity Kind": "GI50", "Recorded Measurement": "16.4 µM (inactive)"}
{"Compound": "O=C(Nc1ccc(Cl)cc1)C(=O)C(C(=O)c1ccccc1-c1ccccc1)C1OC(=O)c2ccccc21 (centres undefined)", "Assay System": "OVCAR-4", "Quantity Kind": "GI50", "Recorded Measurement": "35.5 µM (inactive)"}

What is its GI50 for OVCAR-4? Entry: CC(NC1CCCC[C@H]1O)c1ccccc1 (some centres undefined)
> 100 µM (inactive)

API: value(readout=GI50, system=OVCAR-4) for record Nc1nc(-c2ccco2)cc(-c2ccco2)n1
> 100 µM (inactive)

State its GI50 on OVCAR-4: COC(=O)C1C(O)C(C)C(O)OC1C(C)C(O)C(C)/C=C\C=C(/C)C(=O)Nc1c(C)c(OC(C)=O)c2c(c1O)C(=O)C(C)=C1OCOC(/C(C)=C/C(C)=O)=C12 (centres undefined)
12.1 µM (inactive)

Entry O=C(N/C=C1\C(=O)Oc2ccccc2C1=O)NC1CCCCC1 , system OVCAR-4: what GI50 was measured?
77.8 µM (inactive)

Report GI50 for CCCCCCCCCCCCCCCC(=O)OCC1OC(n2cc(F)c(=O)[nH]c2=O)C(N)C(O)C1O (centres undefined) tested on OVCAR-4.
15.8 µM (inactive)

Recorded GI50 for CCOC(=O)[C@H]1Nc2ccc(Cl)cc2[C@H]2c3ccccc3O[C@H]21 with OVCAR-4, please?
54.1 µM (inactive)

Can you look up GI50 on OVCAR-4 for O=C(CSc1nnc(-c2ccc(/N=C\c3ccc(Cl)cc3)cc2)o1)Nc1ccc(Cl)cc1Cl ?
30.3 µM (inactive)

---

- Tested on: RXF 393
- Test Summary: NCI tumour cell line growth inhibition, 48 h
The source made the active and inactive calls. No stated cut-off is given here; in the data, active = GI50 up to about 1.1 µM and inactive = higher. Where a SMILES comes first, the peptide text is derived from it. The star is where a group is joined. Cbz = O=C(OCc1ccccc1)*; Boc = CC(C)(C)OC(=O)*; tBu = CC(C)(C)*
Give your call using only these classes: active, inactive

Example entries and their recorded answers appear below.
{"Compound": "CCOC(=N)/C(=C1\\OC(=N)C(c2ccc(Cl)cc2)=C1O)c1ccc(Cl)cc1", "Group": "inactive"}
{"Compound": "Cn1c(=O)c(/N=N/c2c(=O)n(C)c(=O)n3c2[nH]c2ccccc23)c2[nH]c3ccccc3n2c1=O", "Group": "inactive"}
{"Compound": "Cc1ccc(C)c(NC(=O)C(=O)C(C(=O)c2ccc3ccccc3c2)C2OC(=O)c3ccccc32)c1 (stereo not given)", "Group": "inactive"}
{"Compound": "Cn1c(=O)sc2cc(C(=S)N3CCN(c4ccccc4)CC3)ccc21", "Group": "inactive"}
{"Compound": "CCOC(=O)c1nc2ccc(C(F)(F)F)cc2nc1Oc1ccc(OC)cc1", "Group": "inactive"}
{"Compound": "O=[N+]([O-])/C(Cl)=C(\\Nc1ccccc1)C(Cl)=C(Cl)Cl", "Group": "inactive"}
{"Compound": "CC(OC(C)(C)C)C(NC(=O)C(CCCCNC(=O)OC(C)(C)C)NC(=O)C(Cc1c[nH]c2ccccc12)NC(=O)C(Cc1ccccc1)NC(=O)OCc1ccccc1)C(=O)NC(Cc1ccccc1)C(=O)O (stereo not given) (Cbz-FWK(Boc)T(tBu)F-OH; configuration not given here)", "Group": "inactive"}
{"Compound": "O=C(NC1=NC2C=CC([N+](=O)[O-])=CC2S1)C(=O)Nn1c(S)nc2ccccc2c1=O (stereo not given)", "Group": "inactive"}
{"Compound": "CCCCc1ccc(Nc2nc3c(ncn3C3CC(O)C(CN=[N+]=[N-])O3)c(=O)[nH]2)cc1 (stereo not given)", "Group": "inactive"}
{"Compound": "NC(=O)C1Cc2cc3c(cc21)OCO3 (stereo not given)", "Group": "inactive"}

Status in this test for COC(=O)C(Cc1ccc2c(c1)CCCC2)Cc1cc2c(cc1C(O)OC)CCC2 (stereo not given) ?
inactive

Recorded call for N#Cc1ccc(-c2nc3cc(Cl)ccc3[nH]2)cc1 ?
inactive

---

Each record here notes measured GI50.
- Test system: SR
- Test Summary: NCI tumour cell line growth inhibition, 48 h
Activity calls are given as the source filed them. No stated cut-off is given here; in the data, active = GI50 up to about 1.1 µM and inactive = higher.

In the examples that follow, each entry is paired with its recorded GI50.
{"Compound": "CCOc1ccc(-c2nc(-c3oc4ccccc4c(=O)c3OC(C)=O)cs2)cc1", "GI50": "> 10 µM (inactive)"}
{"Compound": "CN(C)c1ccc(/C=C(\\C#N)C(=O)c2ccccc2)cc1Br", "GI50": "38.5 µM (inactive)"}
{"Compound": "NS(=O)(=O)c1ccc(NC(=O)c2cccn3c(=O)c4ccccc4nc23)cc1", "GI50": "79.8 µM (inactive)"}
{"Compound": "COC(=O)C(=O)C(C(=O)C=C(C)C)C(=O)C(=O)Nc1ccc(Cl)cc1C (configuration not stated)", "GI50": "23.3 µM (inactive)"}
{"Compound": "OCC(O)C(O)C(O)C(O)c1nnn[nH]1 (configuration not stated)", "GI50": "> 100 µM (inactive)"}
{"Compound": "CN1C[C@H]2[C@@H](C1=O)[C@H](c1ccc([N+](=O)[O-])cc1)ON2C", "GI50": "> 100 µM (inactive)"}
{"Compound": "COC(=O)[C@]12CCC(C)(C)C[C@H]1[C@H]1C(=O)C=C3[C@@]4(C)C=C(C#N)C(=O)C(C)(C)[C@@H]4CC[C@@]3(C)[C@]1(C)CC2", "GI50": "0.0245 µM (active)"}
{"Compound": "CN(C)CC1CCC/C(=C\\c2ccc(Cl)cc2)C1=O (configuration not stated)", "GI50": "1.33 µM (inactive)"}
{"Compound": "O/N=C\\c1c2c(cc3c1CCC3)CCC2", "GI50": "> 100 µM (inactive)"}
{"Compound": "Nc1ccc2c(=S)c3ccccc3[nH]c2c1", "GI50": "25.1 µM (inactive)"}

For Cc1ccc(S(=O)(=O)OCC23CCC(C2)C2CC23)cc1 (configuration not stated) , what is its reported GI50?
> 100 µM (inactive)
